Test system: rodent lifetime carcinogenesis bioassay, tumor incidence TD50
Assay remarks: carcinogenic potency in animals, long-term in vivo studies, CPDB compilation (AID 1745844)
Condition notes: mouse; strain B6C3F1; females; i.p.; site: lung; lesion: alveolar/bronchiolar adenoma; dosed 47 weeks; study length 86 weeks
Experimental endpoint: TD50 (mg/kg/day)
Give your result in mg/kg/day as a bare value.

// lookup TD50 for `S=P(N1CC1)(N1CC1)N1CC1`
0.408

====

System: rodent lifetime carcinogenesis bioassay, tumor incidence TD50
Assay remarks: carcinogenic potency in animals, long-term in vivo studies, CPDB compilation (AID 1745844)
Condition notes: rat; strain Fischer 344; females; in drinking water; site: liver; lesion: neoplastic nodule; dosed 40 weeks; study length 110 weeks
Experimental endpoint: TD50

// lookup TD50 for CN(CC(O)CO)N=O (stereo unspecified)
1.01 mg/kg/day

====

Tested on: rodent lifetime carcinogenesis bioassay, tumor incidence TD50
Assay remarks: carcinogenic potency in animals, long-term in vivo studies, CPDB compilation (AID 1745844)
Condition notes: rat; strain Sprague-Dawley Spartan; females; in feed; site: lung; lesion: squamous-cell carcinoma, keratinized; dosed 103 weeks; study length 103 weeks
Experimental endpoint: TD50

Enter reported TD50 observed with rodent lifetime carcinogenesis bioassay, tumor incidence TD50 for `Clc1cc2c(cc1Cl)Oc1cc(Cl)c(Cl)cc1O2`
0.000192 mg/kg/day

====

Test system: rodent lifetime carcinogenesis bioassay, tumor incidence TD50
Assay remarks: carcinogenic potency in animals, long-term in vivo studies, CPDB compilation (AID 1745844)
Condition notes: mouse; strain NMRI; females; inhaled; site: lung; lesion: adenoma; dosed 78 weeks; study length 119 weeks
Experimental endpoint: TD50 (mg/kg/day)
Give your result in mg/kg/day as a bare value.

// lookup TD50 for `ClC#CCl`
2.73

====

System: rodent lifetime carcinogenesis bioassay, tumor incidence TD50
Assay remarks: carcinogenic potency in animals, long-term in vivo studies, CPDB compilation (AID 1745844)
Condition notes: rat; strain Fischer 344; males; in drinking water; site: skin; lesion: basal-cell carcinoma + sebaceous gland carcinoma; dosed 88 weeks; study length 92 weeks
Experimental endpoint: TD50 (mg/kg/day)
Give your result in mg/kg/day as a bare value.

// lookup TD50 for `COc1cc(-c2ccc(N)c(OC)c2)ccc1N`
6.5

====

System: rodent lifetime carcinogenesis bioassay, tumor incidence TD50
Assay remarks: carcinogenic potency in animals, long-term in vivo studies, CPDB compilation (AID 1745844)
Condition notes: rat; strain Sprague-Dawley; females; in feed; site: kidney; lesion: urothelial papilloma; dosed 112 weeks; study length 112 weeks
Experimental endpoint: TD50 (mg/kg/day)
Give your result in mg/kg/day as a bare value.

// lookup TD50 for `S=C(SN1CCOCC1)N1CCOCC1`
1740

====

System: rodent lifetime carcinogenesis bioassay, tumor incidence TD50
Assay remarks: carcinogenic potency in animals, long-term in vivo studies, CPDB compilation (AID 1745844)
Condition notes: mouse; strain B6C3F1; males; in drinking water; site: liver; lesion: hepatocellular adenoma; dosed 52 weeks; study length 52 weeks
Calls of active or inactive are those of the source. How the calls were made is not given here.
Experimental endpoint: TD50

// lookup TD50 for `O=C(O)O`
1330 mg/kg/day (inactive)

====

Test system: rodent lifetime carcinogenesis bioassay, tumor incidence TD50
Assay remarks: carcinogenic potency in animals, long-term in vivo studies, CPDB compilation (AID 1745844)
Condition notes: mouse; strain B6C3F1; males; i.p.; site: skin; lesion: squamous-cell carcinoma; dosed 52 weeks; study length 83 weeks
Experimental endpoint: TD50

// lookup TD50 for `S=P(N1CC1)(N1CC1)N1CC1`
0.28 mg/kg/day

====

System: rodent lifetime carcinogenesis bioassay, tumor incidence TD50
Assay remarks: carcinogenic potency in animals, long-term in vivo studies, CPDB compilation (AID 1745844)
Condition notes: rat; strain Fischer 344; females; by gavage; site: liver; lesion: hepatocellular adenoma + hepatocellular carcinoma + neoplastic nodule; dosed 106 weeks; study length 108 weeks
Experimental endpoint: TD50 (mg/kg/day)
Give your result in mg/kg/day as a bare value.

// lookup TD50 for `Cc1ccc(N=C=O)cc1N=C=O`
92.2

====

Test system: rodent lifetime carcinogenesis bioassay, tumor incidence TD50
Assay remarks: carcinogenic potency in animals, long-term in vivo studies, CPDB compilation (AID 1745844)
Condition notes: mouse; strain B6C3F1; females; by gavage; site: forestomach; lesion: adenosquamous carcinoma + carcinoma, NOS + squamous-cell carcinoma; dosed 102 weeks; study length 103 weeks
Experimental endpoint: TD50

// lookup TD50 for `CC(C)=CCl`
14.3 mg/kg/day

====

Test system: rodent lifetime carcinogenesis bioassay, tumor incidence TD50
Assay remarks: carcinogenic potency in animals, long-term in vivo studies, CPDB compilation (AID 1745844)
Condition notes: mouse; strain B6C3F1; females; inhaled; site: lung; lesion: alveolar/bronchiolar adenoma + alveolar/bronchiolar carcinoma + adenocarcinoma; dosed 83 weeks; study length 104 weeks
Experimental endpoint: TD50

// lookup TD50 for `C=CC=C`
12.4 mg/kg/day

====

System: rodent lifetime carcinogenesis bioassay, tumor incidence TD50
Assay remarks: carcinogenic potency in animals, long-term in vivo studies, CPDB compilation (AID 1745844)
Condition notes: rat; strain Charles River CD (Sprague-Dawley); males; in feed; site: mammary gland; lesion: fibroadenoma; dosed 68 weeks; study length 68 weeks
Experimental endpoint: TD50

// lookup TD50 for `Cc1cc(Cc2ccc(N)c(C)c2)ccc1N`
6.91 mg/kg/day

====

System: rodent lifetime carcinogenesis bioassay, tumor incidence TD50
Assay remarks: carcinogenic potency in animals, long-term in vivo studies, CPDB compilation (AID 1745844)
Condition notes: rat; strain Fischer 344; males; in drinking water; site: cecum + colon + rectum; lesion: adenomatous polyp; dosed 58 weeks; study length 60 weeks
Experimental endpoint: TD50 (mg/kg/day)
Give your result in mg/kg/day as a bare value.

// lookup TD50 for `Cc1cc(-c2ccc(N)c(C)c2)ccc1N`
4.87

====

System: rodent lifetime carcinogenesis bioassay, tumor incidence TD50
Assay remarks: carcinogenic potency in animals, long-term in vivo studies, CPDB compilation (AID 1745844)
Condition notes: mouse; strain B6C3F1; males; oral dosing; site: liver; lesion: hepatoma; dosed 76 weeks; study length 76 weeks
Calls of active or inactive are those of the source. No rule for the calls is given here.
Overview of reported TD50 across a group of compounds:

Previously resolved entries follow.
> print(dat)
                         compound                meas.value
1        c1ccc2sc(SN3CCOCC3)nc2c1  359 mg/kg/day (inactive)
2  c1ccc2sc(SSc3nc4ccccc4s3)nc2c1  621 mg/kg/day (inactive)

Now examine the next entry.
// lookup TD50 for `CCCCOC(=O)COc1ccc(Cl)cc1Cl`
122 mg/kg/day (inactive)

====

Tested on: rodent lifetime carcinogenesis bioassay, tumor incidence TD50
Assay remarks: carcinogenic potency in animals, long-term in vivo studies, CPDB compilation (AID 1745844)
Condition notes: rat; strain Sprague-Dawley; males; in feed; site: kidney; lesion: several types; types named in the paper; dosed 112 weeks; study length 112 weeks
Experimental endpoint: TD50

// lookup TD50 for `S=C(SN1CCOCC1)N1CCOCC1`
528 mg/kg/day

====

System: rodent lifetime carcinogenesis bioassay, tumor incidence TD50
Assay remarks: carcinogenic potency in animals, long-term in vivo studies, CPDB compilation (AID 1745844)
Condition notes: rat; strain Fischer 344; females; inhaled; site: pituitary gland, anterior; lesion: adenoma, NOS; dosed 103 weeks; study length 105 weeks
Experimental endpoint: TD50 (mg/kg/day)
Give your result in mg/kg/day as a bare value.

Enter reported TD50 observed with rodent lifetime carcinogenesis bioassay, tumor incidence TD50 for CCC1CO1 (stereo unspecified)
83.8

====

Test system: rodent lifetime carcinogenesis bioassay, tumor incidence TD50
Assay remarks: carcinogenic potency in animals, long-term in vivo studies, CPDB compilation (AID 1745844)
Condition notes: mouse; strain B6C3F1; females; in feed; site: lung; lesion: alveolar/bronchiolar adenoma + alveolar/bronchiolar carcinoma; dosed 104 weeks; study length 106 weeks
Overview of reported TD50 across a group of molecules:
Give your result in mg/kg/day as a bare value.

> print(dat)
      smiles.notation  unit.label  meas.value
1  NCCNc1cccc2ccccc12   mg/kg/day        4390
2     OCC(CO)(CBr)CBr   mg/kg/day         127

Now examine the next entry.
// lookup TD50 for `c1ccc2n[nH]nc2c1`
3890

====

Test system: rodent lifetime carcinogenesis bioassay, tumor incidence TD50
Assay remarks: carcinogenic potency in animals, long-term in vivo studies, CPDB compilation (AID 1745844)
Condition notes: rat; strain Fischer; males; in feed; site: urinary bladder; lesion: carcinoma; dosed 77 weeks; study length 77 weeks
Experimental endpoint: TD50

// lookup TD50 for `O=CNc1nc(-c2ccc([N+](=O)[O-])o2)cs1`
9.87 mg/kg/day

====

System: rodent lifetime carcinogenesis bioassay, tumor incidence TD50
Assay remarks: carcinogenic potency in animals, long-term in vivo studies, CPDB compilation (AID 1745844)
Condition notes: hamster; strain Syrian Golden; females; in drinking water; site: cecum; lesion: adenocarcinoma; dosed 67 weeks; study length 67 weeks
Experimental endpoint: TD50 (mg/kg/day)
Give your result in mg/kg/day as a bare value.

// lookup TD50 for `CNNC`
2.84

Just for reference, PubChem BioAssay AID1745844 is where these values come from.
